System: SK-MEL-5 melanoma
Experiment: NCI-60 one-dose screen, 48 h (100 = growth as untreated, 0 = no growth, -100 = all killed)
Details: 10 µM unless noted
Compounds without any hit were thinned out: in the full panel of roughly 83,000, 20% have a hit.
Sorting guide: entries reporting growth beneath 80% go in the true pile, the rest go in the false pile.

>>> label_class("CCCCC[C@@H]1Cc2cc(O)c(C(=O)O)c3c2[C@H](C[C@]2(OC[C@@H](CC(=O)[C@@](C)(CC)C(=O)OC)[C@@H]2C)O3)O1")
"false"
>>> label_class("Cc1cccc(N2CCN(CC(O)COc3ccc(Cl)cc3)CC2)c1 (configuration not stated)")
"false"
>>> label_class("C[C@H](NC(=O)[C@@H](C)N)[C@H](Oc1ccc2c(cnn2-c2ccc(F)cc2)c1)c1ccc2c(c1)OCCO2")
"true"
>>> label_class("CC/C(=C(/c1ccc(Cl)cc1)c1ccc(OCCN2CCCC2)cc1)c1ccc(OC)cc1")
"true"
>>> label_class("Nc1c(C(=O)Nc2ccccc2Cl)sc2nc3c(cc12)C(O)CCC3 (configuration not stated)")
"true"
>>> label_class("CN(C)CCCC1(c2ccc(F)cc2)OCc2cc(-c3cncc4ccccc34)ccc21 (configuration not stated)")
"true"
>>> label_class("CC(C)N1CCN(Cc2ccc3c(NNC(=O)c4ccccc4)nc4cc(F)ccc4n23)CC1")
"true"
>>> label_class("COc1cc(-n2cc(-c3cc(O)c(C/C=C(\\C)CCC=C(C)C)c(O)c3)nn2)cc2c1O[C@]1(C)CC[C@@H](O)C(C)(C)[C@H]1C2")
"true"
>>> label_class("O=C1Nc2ccccc2/C1=C\\c1nc(-c2ccccc2F)n2ccccc12")
"true"
>>> label_class("Fc1ccc(Nc2nc3nonc3nc2Nc2ccc(I)cc2)cc1")
"true"
>>> label_class("O=C1/C(=C/c2cccs2)SC(=S)N1CCCN1CCOCC1")
"false"
>>> label_class("CSc1nc2sc3c(c2c(=O)n1-c1ccc([N+](=O)[O-])cc1)CCCCC3")
"false"
>>> label_class("CCCC(O)Cn1ncc(C(=O)OCC)c1NC(=O)NCc1ccccc1F (configuration not stated)")
"false"
>>> label_class("Cc1ccc(-c2nn(-c3ccccc3)cc2C=C2C(=O)ON=C2C(C)C)cc1")
"false"
>>> label_class("COCCNC(=O)c1ccc(-c2nc3ccc4[nH]ncc4c3c3c2CCCC3)cc1")
"true"
>>> label_class("Clc1ccc(Nc2nnc(COc3ccccc3)c3ccccc23)cc1")
"true"
>>> label_class("O=C1/C(=C/c2ccc(Cl)c(Cl)c2)CN(C(=O)C(Cl)Cl)C/C1=C\\c1ccc(Cl)c(Cl)c1")
"true"
>>> label_class("CCOC(=O)C#Cc1c(C(=O)OCC)nnn1[C@@H]1O[C@H](CO)[C@H]2OC3(CCCCC3)O[C@H]21")
"false"
>>> label_class("CCCCC(=O)c1ccco1")
"false"
>>> label_class("O=C1NCCC12CCN(c1c(Cl)cncc1-c1ccc(O)cc1)CC2")
"false"
>>> label_class("O=C(O)[C@@H]1c2ccccc2-c2ccccc2[C@H]1C(=O)O")
"false"
>>> label_class("CNC(=O)c1cc(Oc2ccc3nc(NC(C)=O)sc3c2)ccn1")
"false"
>>> label_class("CCN(CC)c1nc(SCc2ccccc2Cl)ncc1C")
"false"
>>> label_class("N#CC1=C(N)Oc2c(sc3c(F)cccc23)C1c1ccc(F)cc1 (configuration not stated)")
"true"
>>> label_class("CNC(=O)c1c(NC(=O)c2ccc(C(F)(F)F)cc2)sc2c1CCC(=O)C2")
"true"
>>> label_class("C=C(C)[C@@H]1CC[C@]2(C(=O)NCCNCCN)CC[C@]3(C)[C@H](CC[C@@H]4[C@@]5(C)C/C(=C/c6ccncc6)C(=O)C(C)(C)[C@@H]5CC[C@]43C)[C@@H]12")
"false"
>>> label_class("COC(=O)c1ccc2c(c1)C(=O)c1c-2n(CCCN)c(=O)c2cc([N+](=O)[O-])ccc12")
"true"
>>> label_class("CCOC(=O)c1cnc2ccccc2c1Cl")
"false"
>>> label_class("Nc1nc2c([nH]1)c1[nH]c3ccccc3c1c1[nH]c3ccccc3c21")
"true"
>>> label_class("COc1ccc(OC)c(C(=O)/C=C/c2cc3c(c(OC)c2OC)OCO3)c1")
"true"
>>> label_class("O=C(Nn1c2c(sc1=NCc1ccccc1)C(=O)c1ccccc1C2=O)c1cc2ccc1CCc1ccc(cc1)CC2")
"true"
>>> label_class("C=C(C)[C@@H]1CC[C@]2(C(=O)O)CC[C@]3(C)[C@H](CC[C@@H]4[C@@]5(C)C[C@@H](Cc6cn(CCO[C@@H]7O[C@H](COC(C)=O)[C@H](OC(C)=O)[C@H](OC(C)=O)[C@H]7OC(C)=O)nn6)[C@H](O)C(C)(C)[C@@H]5CC[C@]43C)[C@@H]12")
"true"
>>> label_class("O=C(/C=C/c1cccs1)c1ccc(Cl)nc1")
"false"
>>> label_class("CCCNC(=O)Oc1ccc(/C(=C(/C)Cc2ccc(OC)cc2)c2ccc(OCCCN(C)C)cc2)cc1")
"false"
>>> label_class("COc1ccc(/C=C2\\COc3ccc(O)cc3C2=O)c(OC)c1OC")
"false"
